protocol.description: Growth inhibition of human NCI60 cells incubated for 48 hrs by sulforhodamine B assay
Type: functional
applied.conditions: NCI60, 48 h
Exercise: state measured GI50 for each of the compounds provided.
The figure you give is taken to be in µM; do not add the unit.

Recorded result, COc1ccc(C(=O)c2sc3nc(-c4cccs4)ccc3c2N)cc1OC , GI50: 6.31

Recorded result, COc1ccc(C(=O)c2cc(OC)c(OC)c(OC)c2)cc1O , GI50: 0.06

Recorded result, COc1ccc(C(=O)c2sc3nc4c(cc3c2N)CCCC4)cc1OC , GI50: 3.24

Recorded result, COc1ccc(C(=O)c2sc3nc(-c4ccccc4OC)ccc3c2N)cc1OC , GI50: 7.94

Recorded result, Cc1ccc(C(=O)c2sc3nc4c(cc3c2N)CCCC4)c(C)c1 , GI50: 0.28

Recorded result, COC(=O)Nc1nc2cc(C(=O)c3cccs3)ccc2[nH]1 , GI50: 0.0389

Recorded result, COc1ccccc1-c1ccc2c(N)c(C(=O)c3ccc4c(c3)OCO4)sc2n1 , GI50: 5.13
